Test system: HCV replicon
Test: HCV replicon replication assay (NPTII ELISA)
Assay type: cell-based, Hepatitis C virus (Huh-7 cells)
Details: Hepatitis C virus, Huh-7, 72 h, inhibition of HCV replicon replication in Huh-7 HCV replicon-containing cells, three days incubation, NPT level by ELISA; read-out: EC50
Recorded EC50 values for a group of molecules are listed next.

Consider the worked cases shown below.
CCCCCOc1ccc(N(C(=O)C(OC(C)=O)c2ccccc2)c2nc(-c3cccnc3)cs2)cc1C(F)(F)F (stereo not drawn)	< 1000 nM
CC(C)COc1ccc(N(C(N)=O)c2nc(-c3ccc(F)cc3)cs2)cc1C(F)(F)F	< 1000 nM
CCCCCOc1ccc(N(C=O)c2nc(-c3cccnc3)cs2)cc1C(F)(F)F	< 1000 nM
CCCCCCOc1ccc(N(C(N)=O)c2nc(-c3ccccn3)cs2)cc1	< 1000 nM
CCCCCOc1ccc(N(C(=O)C(=O)OC)c2nc(-c3cccnc3)cs2)cc1F	< 1000 nM

Qu. Fill blank: measured EC50 of the molecule CCCCCOc1ccc(N(C(=O)C(C)C)c2nc(-c3ccc(CN(C)C)nc3)cs2)cc1C(F)(F)F is ____.
Ans. 1000 to 10000 nM
